The measured values listed here are drawn from PubChem BioAssay AID551.

target: Dual specificity protein phosphatase 1 (Homo sapiens); test: concentration-response of DUSP1 blockers – biochemical, in vitro, confirmation, dose response (AID 551); conditions: recombinant MKP-1 phosphatase, fluorescence substrate
Calls of active or inactive are those of the source. The rule behind the calls is not given here.
Permitted responses: active, inactive

>>> label("COC(=O)C1=C(C)NC2=C(C(=O)c3ccccc32)C1c1ccc(-c2ccc(C(=O)O)cc2)o1 (centres undefined)")
"inactive"
>>> label("N#C/C(=C(/O)CSc1nnc(Cc2cccs2)n1C1CCCCC1)c1nc2ccccc2[nH]1")
"inactive"

Prompt: What is the recorded call for this molecule in the test? CCSCCOC(=O)C1=C(C)NC2=C(C(=O)CCC2)C1c1coc2ccccc2c1=O (centres undefined)
Completion: inactive

Prompt: # fetch the recorded call for O=C1c2cccnc2C(Nc2ccc(S(=O)(=O)N3CCCCCC3)cc2)N1Cc1ccccc1 (centres undefined) here
Completion: inactive

Prompt: Outcome logged for Oc1ccc2ccccc2c1C=NC12CN3CCN(CN(C3)C1)C2 in this assay:
Completion: inactive
